TARGET_SYSTEM: HDAC1 (Homo sapiens (Human))
Sequence (Q13547 whole entry): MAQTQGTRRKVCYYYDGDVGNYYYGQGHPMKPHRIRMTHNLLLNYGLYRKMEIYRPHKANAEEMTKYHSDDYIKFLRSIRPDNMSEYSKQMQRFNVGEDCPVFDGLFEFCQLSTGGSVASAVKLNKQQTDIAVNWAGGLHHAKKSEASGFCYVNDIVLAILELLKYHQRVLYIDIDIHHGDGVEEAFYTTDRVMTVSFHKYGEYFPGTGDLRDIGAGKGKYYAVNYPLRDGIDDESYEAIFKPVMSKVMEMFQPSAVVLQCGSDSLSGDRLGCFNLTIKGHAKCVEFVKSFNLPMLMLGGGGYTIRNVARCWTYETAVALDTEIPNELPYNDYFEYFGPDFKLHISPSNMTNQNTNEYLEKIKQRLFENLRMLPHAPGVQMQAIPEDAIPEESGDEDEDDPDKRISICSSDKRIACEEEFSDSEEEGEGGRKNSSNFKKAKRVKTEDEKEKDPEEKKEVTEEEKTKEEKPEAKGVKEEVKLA
TEST_PROTOCOL: HDAC enzyme assay, HDAC1
CONDITION_NOTES: read-out: HDAC1 IC50
Class key for IC50 values: interval 1: < 100 nM; interval 2: ≥ 100 nM and < 300 nM; interval 3: ≥ 300 nM

Answered examples (5):
- COMPOUND: "Cc1ccc(C2(Nc3ncc(C(=O)NO)cn3)CC2)cc1 [Compound 93]"
  GROUP: "interval 1"
- COMPOUND: "O=C(NO)c1cnc(NC2(c3ccccc3F)CC2)nc1 [Compound 82]"
  GROUP: "interval 1"
- COMPOUND: "CC1(Nc2ncc(C(=O)NO)cn2)CCCCC1 [Compound 110]"
  GROUP: "interval 3"
- COMPOUND: "O=C(NO)c1cnc(NC2(c3ccc(Cl)cc3)CC2)nc1 [Compound 136]"
  GROUP: "interval 1"
- COMPOUND: "CC(C)(Nc1ncc(C(=O)NO)cn1)c1ccc(F)c(F)c1 [Compound 76]"
  GROUP: "interval 3"

Enquiry: Lab note: sort O=C(NO)c1cnc(Nc2cc(Cl)cc(C(F)(F)F)c2)nc1 [Compound 25] into the matching IC50 band.
Return: interval 3

Enquiry: What about this compound? O=C(NO)c1cnc(NC2(c3ccc(F)c(Cl)c3)CC2)nc1 [Compound 131]
Return: interval 1
